B1: GNB5 (parent)
chain: YYPSGDAFASGSDDATCRLYDLRA

Variants of: B1
PROTOCOL NOTES: protein stability index of a GFP-peptide fusion (GPS, HEK-293T) (PSI 1-6); higher = more stable;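 note: lentivirally expressed fusions sorted by FACS into six bins by GFP to DsRed ratio, PSI derived from sequencing read proportions per bin multiplied by bin number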
SETTINGS: c terminus: a fixed tail appended
TEST READOUT: protein stability index
Provide a numeric answer; units are not to be included.

Identify protein stability index associated with the variant Y20V 2.9

Identify protein stability index associated with the variant C17S 2.85

Identify protein stability index associated with the variant D21H 2.31

Identify protein stability index associated with the variant A7W 1.66

Identify protein stability index associated with the variant D21E 2.47

Identify protein stability index associated with the variant S12Q 2.08

Identify protein stability index associated with the variant D14T 2.02

Identify protein stability index associated with the variant D13H 2.23

Identify protein stability index associated with the variant Y2R 3.66

Identify protein stability index associated with the variant A7H 2.58

Identify protein stability index associated with the variant A24K 2.43

Identify protein stability index associated with the variant A15S 2.25

Identify protein stability index associated with the variant L22Q 2.55

Identify protein stability index associated with the variant C17H 2.56

Identify protein stability index associated with the variant S4K 3.33

Identify protein stability index associated with the variant S12G 1.74

Identify protein stability index associated with the variant F8M 3.53
